These data points were gathered from patent US20250289806A1.

Tested on: Jurkat
Assay: Cell viability assay, Jurkat
Format: cell-based
Details: Homo sapiens, acute lymphoblastic leukemia, cell viability, 72 hours
ENDPOINT: IC50 (µM)
# unit: µM | format: bare number

Q: Give the measured IC50 of `CC(C)NC(=O)c1ccc(Nc2nccc(-c3ccc4nc(N5CCCC5)ncc4c3)n2)cc1` .
Ans: 25.7

###

Biological target: STK17A (Homo sapiens)
Construct: purchased Reaction Biology Corporation
Sequence (Q9UEE5 whole entry): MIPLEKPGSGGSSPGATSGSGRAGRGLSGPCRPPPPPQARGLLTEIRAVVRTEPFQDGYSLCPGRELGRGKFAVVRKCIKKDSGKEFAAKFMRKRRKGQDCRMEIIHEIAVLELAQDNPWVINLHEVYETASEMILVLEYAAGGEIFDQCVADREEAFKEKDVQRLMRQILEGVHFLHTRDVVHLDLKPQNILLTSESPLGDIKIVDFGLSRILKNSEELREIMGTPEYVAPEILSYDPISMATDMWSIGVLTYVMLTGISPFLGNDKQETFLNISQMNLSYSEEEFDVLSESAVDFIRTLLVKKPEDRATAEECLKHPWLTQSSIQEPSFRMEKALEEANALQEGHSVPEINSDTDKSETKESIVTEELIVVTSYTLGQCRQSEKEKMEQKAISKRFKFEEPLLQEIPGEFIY
Assay: Enzymatic activity assay (Reaction Biology Corporation), STK17A
Type: biochemical
Conditions: enzymatic activity assay; read-out: IC50 STK17A
pIC50: −log10 of the molar value.
Record form. Attribute: pIC50. Fill in for each entry.

Q: For `O=C(NC1CCNCC1)c1ccc(Nc2nccc(-c3ccc4nc(N5CCCC5)ncc4c3)n2)cc1` , what is its reported pIC50?
Ans: < 7.00

Q: // returns reported pIC50 for input `OCCn1cc(Nc2nccc(-c3ccc4nc(N5CCOCC5)ncc4c3)n2)cn1`
Ans: > 7.30

Q: Which pIC50 is listed for `c1cc(-c2ccc3nc(N4CCCC4)ncc3c2)nc(Nc2ccc(N3CCOCC3)cc2)n1` ?
Ans: > 7.30

Q: Dear colleague, I am looking for the recorded pIC50 of the following molecule: `c1cc(-c2ccc3nc(N4CCOCC4)ncc3c2)nc(Nc2cnn(C3CCNCC3)c2)n1`
Ans: > 7.30

Q: Any idea what pIC50 was measured for `CC(C)NC(=O)c1ccc(Nc2nccc(-c3ccc4nc(N5CCOCC5)ncc4c3)n2)cc1` ?
Ans: > 7.30

Q: Quick one: pIC50 for `c1cc(-c2ccc3nc(N4CCCC4)ncc3c2)nc(Nc2cnn(C3CCNCC3)c2)n1` ?
Ans: > 7.30

Q: Query: pIC50; subject: `CC(C)NC(=O)c1ccc(Nc2nccc(-c3ccc4nc(N5CCCC5)ncc4c3)n2)cc1`
Ans: > 7.30

Q: What measured pIC50 goes with `CC(C)NC(=O)c1cccc(Nc2nccc(-c3ccc4nc(N5CCCC5)ncc4c3)n2)c1` ?
Ans: < 7.00
